- target.desc: human EP1 (Homo sapiens, UniProt P34995)
- Sequence (P34995 1-402): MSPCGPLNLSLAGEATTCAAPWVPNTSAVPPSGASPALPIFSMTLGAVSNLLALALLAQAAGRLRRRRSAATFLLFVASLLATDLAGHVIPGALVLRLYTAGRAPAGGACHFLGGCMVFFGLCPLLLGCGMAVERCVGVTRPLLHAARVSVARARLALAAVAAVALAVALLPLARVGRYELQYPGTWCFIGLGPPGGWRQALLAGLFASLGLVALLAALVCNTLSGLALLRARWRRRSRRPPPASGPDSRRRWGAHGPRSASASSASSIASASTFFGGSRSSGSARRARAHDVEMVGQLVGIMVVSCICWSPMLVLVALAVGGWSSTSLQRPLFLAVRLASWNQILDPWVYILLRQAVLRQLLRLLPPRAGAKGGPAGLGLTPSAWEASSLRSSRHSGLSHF
- assay.info: In vitro binding to human EP1 ([3H]-PGE2 displacement, HEK293 membranes)
- setup.conditions: [3H]-PGE2 binding, hEP1 membranes from recombinant HEK293 cells
Counter-ions that a name gives are not always drawn.
experimental.readout: Ki (µM)
Numbers only, in µM.

[
  {
    "compound": "C[C@H](NC(=O)[C@H]1Cc2ccccc2CN1CCOc1ccc(F)cc1)c1ccc(C(=O)O)cc1 [Example 2, hydrochloride]",
    "target.desc": "human EP1 (Homo sapiens, UniProt P34995)",
    "measured.number": 4.65
  }
]

Now consider the entry below.
Q: Entry C[C@H](NC(=O)[C@H]1Cc2ccccc2CN1CCOc1ccccc1)c1ccc(C(=O)O)cc1 [Example 1] : reported Ki = ?
Ans: 7.92

* * *

Provide the reported IC50 of each item.
- target.desc: human EP4 (Homo sapiens)
- Sequence (P35408 whole entry): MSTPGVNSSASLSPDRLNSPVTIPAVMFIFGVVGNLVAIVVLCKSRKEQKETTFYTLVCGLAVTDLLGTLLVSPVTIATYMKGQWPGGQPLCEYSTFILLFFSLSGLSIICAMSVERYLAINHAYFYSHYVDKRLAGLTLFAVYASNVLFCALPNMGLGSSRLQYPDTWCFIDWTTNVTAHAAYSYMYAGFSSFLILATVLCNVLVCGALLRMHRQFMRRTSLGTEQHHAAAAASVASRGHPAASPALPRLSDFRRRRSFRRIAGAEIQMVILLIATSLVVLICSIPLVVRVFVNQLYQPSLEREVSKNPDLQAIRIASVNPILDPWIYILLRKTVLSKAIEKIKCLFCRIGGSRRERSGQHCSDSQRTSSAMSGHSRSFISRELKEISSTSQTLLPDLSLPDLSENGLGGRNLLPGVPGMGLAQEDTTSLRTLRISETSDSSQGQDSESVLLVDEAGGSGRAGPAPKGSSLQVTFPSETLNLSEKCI
- assay.info: In vitro antagonist activity in human whole blood (reversal of PGE2 inhibition of LPS-induced TNFα production)
- Type: cell-based
- Design: Blood is collected from normal volunteer donors; from tissue; host or cells: human whole blood from volunteer donors
- setup.conditions: LPS 10 μg/mL with 10 nM PGE2, geometric mean ± standard deviation, read-out: IC50 in human blood TNFα induction assay
Structures can show the parent of a compound that is named as a salt.
Give bare numbers, in nM.

[
  {
    "compound": "C[C@H](NC(=O)[C@H]1Cc2ccccc2CN1CCOc1ccccc1)c1ccc(C(=O)O)cc1",
    "target.desc": "human EP4 (Homo sapiens)",
    "unit.annotation": "nM",
    "measured.number": 39
  }
]

Q: Entry C[C@H](NC(=O)[C@H]1Cc2ccccc2CN1CCOc1ccc(F)cc1)c1ccc(C(=O)O)cc1 [Example 2, hydrochloride] : reported IC50 = ?
Ans: 61

* * *

- target.desc: rat EP4 (Rattus norvegicus, UniProt P43114)
- Sequence (P43114 whole entry): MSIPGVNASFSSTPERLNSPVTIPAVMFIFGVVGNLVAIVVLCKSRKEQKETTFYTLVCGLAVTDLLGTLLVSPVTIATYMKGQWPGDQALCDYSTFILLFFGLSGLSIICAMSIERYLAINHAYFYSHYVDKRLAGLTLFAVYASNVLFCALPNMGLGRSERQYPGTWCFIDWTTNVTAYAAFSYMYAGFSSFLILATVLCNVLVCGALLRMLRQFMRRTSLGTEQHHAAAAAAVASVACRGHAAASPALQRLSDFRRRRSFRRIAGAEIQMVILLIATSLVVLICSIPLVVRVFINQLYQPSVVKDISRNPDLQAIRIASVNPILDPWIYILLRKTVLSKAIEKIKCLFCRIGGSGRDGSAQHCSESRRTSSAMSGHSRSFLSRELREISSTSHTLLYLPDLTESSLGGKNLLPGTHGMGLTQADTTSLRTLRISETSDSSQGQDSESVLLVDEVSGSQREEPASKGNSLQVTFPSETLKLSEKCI
- assay.info: In vitro rat EP4 functional antagonist activity (cAMP HTRF)
- setup.conditions: HEK293 cells expressing rat EP4; PGE2 at EC80; n=1; read-out: IC50 measured at rat EP4 (cAMP)
- Description: Rat EP4 cDNA (Genebank Accession# NM_03276) is cloned into pcDNA 3.1 vector and subsequently transfected in HEK293 cells for receptor expression. Rat EP4 stable clone is scaled up and then frozen down as cell bank for future compounds screening. […] The cAMP levels generated from the cells are quantified by a cAMP HTRF assay kit (Cisbio 62AM4PEC). The plates are read on an EnVision plate reader using HTRF optimized protocol (PerkinElmer). […]
Counter-ions that a name gives are not always drawn.
experimental.readout: IC50 (nM)
One number for each entry, in nM.

[
  {
    "molecule": "C[C@H](NC(=O)[C@H]1Cc2ccccc2CN1CCOc1ccccc1)c1ccc(C(=O)O)cc1",
    "IC50 / nM": 2
  }
]

Now consider the entry below.
Q: Entry C[C@H](NC(=O)[C@H]1Cc2ccccc2CN1CCOc1ccc(F)cc1)c1ccc(C(=O)O)cc1 [Example 2, hydrochloride] : reported IC50 = ?
Ans: 6.7

Hello, the source for this data is patent US9371289B2, in case you need it.
